Settings: in methanol, 308.15 K

MOLECULE SMILES	solubility (mole fraction)
c1ccc2[nH]cnc2c1	0.129

----------
Conditions: in isobutanol, 303.15 K

MOLECULE SMILES	solubility (mole fraction)
c1ccc2[nH]cnc2c1	0.114

----------
Settings: in isobutyl acetate, 283.15 K

MOLECULE SMILES	solubility (mole fraction)
c1ccc2[nH]cnc2c1	0.00698

----------
Conditions: in sec-butanol, 313.15 K
RECORDED ENDPOINT: solubility (mole fraction)

MOLECULE SMILES	READOUT VALUE
c1ccc2[nH]cnc2c1	0.137

----------
Conditions: in n-pentanol, 313.15 K

MOLECULE SMILES	solubility (mole fraction)
c1ccc2[nH]cnc2c1	0.143
